# Test System: His-LAMA4 as used in Example 6 (species not stated) (Homo sapiens (Human)) (UniProt Q16363)
# Assay Notes: ForteBio BLI, LAMA-His on anti-His sensor, antibody 8.33 nM
Entries and their kon values follow.
Property Measured: kon (M⁻¹ s⁻¹)

• humanized 19C12 antibody H2L6 (antibody, V domains shown) VH: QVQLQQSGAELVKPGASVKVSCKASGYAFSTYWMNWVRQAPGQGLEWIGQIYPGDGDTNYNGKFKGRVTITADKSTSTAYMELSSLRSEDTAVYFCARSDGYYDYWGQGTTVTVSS VL: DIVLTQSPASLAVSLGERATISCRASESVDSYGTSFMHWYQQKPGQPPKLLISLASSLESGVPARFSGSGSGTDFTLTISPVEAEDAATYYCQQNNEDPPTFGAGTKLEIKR = 2e+07
• humanized 19C12 antibody H2L4 (antibody, V domains shown) VH: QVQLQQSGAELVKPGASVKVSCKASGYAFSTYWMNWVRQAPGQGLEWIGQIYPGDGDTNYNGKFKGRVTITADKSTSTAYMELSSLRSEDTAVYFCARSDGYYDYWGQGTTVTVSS VL: NIVLTQSPASLAVSLGERATISCRASESVDSYGTSFMHWYQQKPGQPPKLLISLASSLESGVPARFSGSGSGTDFTLTISPVEAEDAATYYCQQNNEDPPTFGAGTKLEIKR = 1.67e+07
• chimeric 19C12 antibody (antibody, V domains shown) VH: QVQLQQSGAELVKPGASVKISCKASGYAFSTYWMNWVKQRPGEGLEWIGQIYPGDGDTNYNGKFKGKATLTADKSSSTAYMQLSSLTSEDSAVYFCARSDGYYDYWGQGTTLTVSS VL: NIVLTQSPASLAVSLGQRATISCRASESVDSYGTSFMHWYQQKPGQPPKLLICLASSLESGVPARFSGSGSRTDFTLTIDPVEADDAATYYCQQNNEDPPTFGAGTKLELKR = 2e+07
• humanized 19C12 antibody H2L3 (antibody, V domains shown) VH: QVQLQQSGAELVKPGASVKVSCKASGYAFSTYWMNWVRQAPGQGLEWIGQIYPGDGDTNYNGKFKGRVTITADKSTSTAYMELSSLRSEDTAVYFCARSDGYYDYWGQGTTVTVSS VL: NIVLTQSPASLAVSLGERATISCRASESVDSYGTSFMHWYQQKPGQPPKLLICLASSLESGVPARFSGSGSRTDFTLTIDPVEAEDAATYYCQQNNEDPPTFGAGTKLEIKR = 2.07e+07
• humanized 19C12 antibody H3L6 (antibody, V domains shown) VH: EVQLQQSGAELVKPGASVKVSCKASGYAFSTYWMNWVRQAPGQGLEWIGQIYPGDGDTNYNGKFKGRVTITADKSTSTAYMELSSLRSEDTAVYFCARSDGYYDYWGQGTTVTVSS VL: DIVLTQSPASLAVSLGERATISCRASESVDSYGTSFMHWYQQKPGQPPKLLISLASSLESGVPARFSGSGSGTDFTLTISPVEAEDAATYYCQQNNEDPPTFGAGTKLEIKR = 2.11e+07

Reference source: patent US20170158755A1
